- protocol_text: Selectivity index, ratio of CC50 for rat L6 cells to IC50 for bloodstream form of Trypanosoma brucei rhodesiense STIB900
- Format: functional
measure: Ratio CC50/IC50

1) Cl.Cl.O=c1c2ccc(NC3=NCCN3)cc2[nH]c2cc(NC3=NCCN3)ccc12 :: 2210
2) Cn1c2ccc(NC3=NCCN3)cc2c(=O)c2ccc(NC3=NCCN3)cc21.O=C(O)C(F)(F)F.O=C(O)C(F)(F)F :: 12287
3) O=C(O)C(F)(F)F.O=C(O)C(F)(F)F.O=c1c2ccc(NC3=NCCN3)cc2[nH]c2cc(NC3=NCCN3)ccc12 :: 1647
4) Cn1c2ccc(NC3=NCCN3)cc2c(=O)c2cc(NC3=NCCN3)ccc21.O=C(O)C(F)(F)F.O=C(O)C(F)(F)F :: 14843
5) Cl.Cl.O=c1c2ccc(NC3=NCCN3)cc2[nH]c2ccc(NC3=NCCN3)cc12 :: 15257
